# protein stability index per entry
B1: TRIB1 (parent)
chain: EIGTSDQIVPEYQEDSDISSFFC

Variants of: B1
Test: protein stability index of a GFP-peptide fusion (GPS, HEK-293T) (PSI 1-6); higher = more stable;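 also: lentivirally expressed fusions sorted by FACS into six bins by GFP to DsRed ratio, PSI derived from sequencing read proportions per bin multiplied by bin number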
Settings: c terminus: native
reported-endpoint: protein stability index

1. EIGTSDQIVPEYQEDSQISSFFC [D17Q] :: 2.94
2. YIGTSDQIVPEYQEDSDISSFFC [E1Y] :: 2.11
3. EIGTSDQIVPEYQEDSDASSFFC [I18A] :: 3.4
4. EIGQSDQIVPEYQEDSDISSFFC [T4Q] :: 2.25
5. EIGTSDQIVPEYQEDSDRSSFFC [I18R] :: 4.26
6. EIGTSDQIVPEYQEDSCISSFFC [D17C] :: 2.92
7. EIGTSDQIVPEYQEDFDISSFFC [S16F] :: 2.6
8. EIGTSDQIVPEYQEDSDISFFFC [S20F] :: 2.81
9. EIGTSDQIVPEYQEDNDISSFFC [S16N] :: 2.68
10. EIGTCDQIVPEYQEDSDISSFFC [S5C] :: 2.72
11. EIGTSDQIVPEYQEDSDISSKFC [F21K] :: 4.67
12. EIGTSDQIVPEKQEDSDISSFFC [Y12K] :: 5.54
13. EIGTSDQIVPCYQEDSDISSFFC [E11C] :: 2.61

Recorded values, source the supplement of paper PMC10567573.
